Biological target: Neu5Ac(a2-3)Gal(b1-4)GlcNAc(b1-2)[Neu5Ac(a2-3)Gal(b1-4)GlcNAc(b1-4)]Man(a1-3)[GlcNAc(b1-4)][Neu5Ac(a2-3)Gal(b1-4)GlcNAc(b1-2)[Neu5Ac(a2-3)Gal(b1-4)GlcNAc(b1-6)]Man(a1-6)]Man(b1-4)GlcNAc(b1-4)GlcNAc
Assay: glycan array binding signal (z-score within array); higher = stronger binding
Conditions: glycan notation: IUPAC condensed, linker removed
This is one part of a sample in which the strongest signals are shown more often than they occur.
Listing of entries alongside the reported glycan array binding signal (z-score).
Respond using a number only.

Examples with their reported glycan array binding signal (z-score) follow.
- binder: "TIM1 (protein) ADGIQSVKVGGEAGPSVTLPCHYSGAVTSMCWNRGSCSLFTCQNGIVWTNGTHVTYRKDTRYKLLGDLSRRDVSLTIENTAVSDSGVYCCRVEHRGWFNDMKITVSLEIVPPHHHHHH"
  observed_measurement: -0.288
- binder: "TAL6-4LysM (Trichoderma atroviride) (protein) AADSIPSISPTGIITPTPTQSGMVSNCNKFYDVHSNDGCSAIASSQHVDLSSLYKWNPAIKTDCSGLQASVYVCIGILTTSMSTTSKLPTTTSKPSTTSKPPTGITTPTPTQSGMVKNCNKFYDVHSGDGCSAIASSQKVNLSSFYLWNPAVKTDCSGLQASVFVCIGTLTTSMSTTTSKLPTTTSKPSTTSKPPTGIITPTPTQNGMVKNCNKFYDVHSGDGCSAIASSQKVNLSSFYLWNPAVKTDCSGLQASVFVCVGTATTTTAAGITTPTPTQSGMVSGCNKFYDVHAGDGCSAIASSQKIALSSLYKWNPAVKTDCSGLQASVYICIGVGNAAAARVTGALEQKLISEEDLNSAVDHHHHHH"
  observed_measurement: -1.17
- binder: "SP15308B-bot-339-22-339 (Bacteroides ovatus) (protein) NEWEDEQYEQYVSFKAPIASGSDGVTTIYVRYKDNGKVTYQLPIIVSGSTVNSQDRDIHIAVDKDTLKTLNIERFSLYRPELWYTEMEEDKYEFPETVHIPAGSCVELLNIDFNLQDIDMLEKWVLPLTIVDDGSYAYQSHPRKNYAKALLKVVPFNNYSGSYTASSMKVYTYINGKPDTNARTTDKRTGYVVDNNSIFFYAGLINEDMDKDMRKKYKINVHFKEDGTLDMKQDDPSNEMEFELIGTPTYSSTSVMDATRPYLERRYVQIMFEYDFQDFTYGGSGTEVIPIKYRVAGSMTLLRNINTQIPDEDQQIEW"
  observed_measurement: -0.547
- binder: "YASPKCFRYPNGVLACT [Odorranalectin (Odorrana grahami), B3TFE9_RANGR]"
  observed_measurement: -0.481
- binder: "CGL (Crenomytilus grayanus), H2FH31 (protein) MTTFLIKHKASGKFLHPYGGSSNPANNTKLVLHSDIHERMYFQFDVVDERWGYIKHVASGKIVHPYGGQANPPNETNMVLHQDRHDRALFAMDFFNDNIMHKGGKYIHPKGGSPNPPNNTETVIHGDKHAAMEFIFVSPKNKDKRVLVYA"
  observed_measurement: -0.348

Value of measured glycan array binding signal (z-score) for the entry Mermaid1 (Stilbonema majum) (protein) MGSSHHHHHHSSGLVPRGSHMAASGWLRSPQGTVVKLYRRSLSWSKADEFCKDVDGRLVVDRTADMHLFLIKNVLKEKKSRVWVGLRRTAPHSRTWIWSDGTRQNEDDLDANLWLRDEPNDAAGEEECALFMYSPWEKAWGLNDYLCRGGCRSYQFICEKWIR : -0.428

Value of measured glycan array binding signal (z-score) for the entry Clec18A (Homo sapiens) (protein) PFHTCDLRIDGDCFMVSSEADTYYRARMKCQRKGGVLAQIKRQKVQDILAFYLGRLETTNEVIDSDFETRNFWIGLTYKTAKDSFRWATGEHQAFTSFAFGQPDNHGFGNCVELQASAAFNWNDQRCKTRNRYICQ : -0.652

Value of measured glycan array binding signal (z-score) for the entry pTFF2 (Sus scrofa), P01359 (protein) KPAACRCSRQDPKNRVNCGFPGITSDQCFTSGCCFDSQVPGVPWCFKPLPAQESEECVMEVSARKNCGYPGISPEDCAARNCCFSDTIPEVPWCFFPMSVEACHY : 6.13

Value of measured glycan array binding signal (z-score) for the entry SP8524D-bot-399-27-399 (Bacteroides ovatus) (protein) DAKYDTLDTHAYIEEALSSTSQKVTVQATGESFTTLNVHLSNLSSTDNHYKLVTDQSVLDTYNHINGTGYIMLPKDYYTLPETITVKAGQYAADALSIALKAFSQEMMKSGESYALPVKLVLQDGSISPMENTGTFVILAESIIEFSAPMFVGAPSLKANKFTESPETYSQYTIEVRFQVANTADRDRAVFKNGGDDANFILLRFEDPQSDNENYKAHSLVQIVGRNRLYLNPSNSFKPNEWQHLALVCDGSNYRLYINGVDSGVLSIPTGATTFSDVNWFCLGDDSYSRWGNCKILMSEARIWSVVRSASQIQNNMTQVSPKSVGLEAYWRFNEGQGNVFEDATGKGHTLTTSATPTWIDGILSTDKSTEWK : -0.648

Value of measured glycan array binding signal (z-score) for the entry Cohesin-hDCIR (Homo sapiens) (protein) LDDLDAVRIKVDTVNAKPGDTVRIPVRFSGIPSKGIANCDFVYSYDPNVLEIIEIEPGDIIVDPNPDKSFDTAVYPDRKIIVFLFAEDSGTGAYAITKDGVFATIVAKVKEGAPNGLSVIKFVEVGGFANNDLVEQKTQFFDGGANVGDTTEPATPTTPVTTPTTTDDLDAASQKYSQLLEKKTTKELVHTTLECVKKNMPVEETAWSCCPKNWKSFSSNCYFISTESASWQDSEKDCARMEAHLLVINTQEEQDFIFQNLQEESAYFVGLSDPEGQRHWQWVDQTPYNESSTFWHPREPSDPNERCVVLNFRKSPKRWGWNDVNCLGPQRSVCEMMKIHLHHHHHH : -0.508

Value of measured glycan array binding signal (z-score) for the entry Cohesin-hMARCO (Homo sapiens) (protein) LDDLDAVRIKVDTVNAKPGDTVRIPVRFSGIPSKGIANCDFVYSYDPNVLEIIEIEPGDIIVDPNPDKSFDTAVYPDRKIIVFLFAEDSGTGAYAITKDGVFATIVAKVKEGAPNGLSVIKFVEVGGFANNDLVEQKTQFFDGGANVGDTTEPATPTTPVTTPTTTDDLDAASVRIVGSSNRGRAEVYYSGTWGTICDDEWQNSDAIVFCRMLGYSKGRALYKVGAGTGQIWLDNVQCRGTESTLWSCTKNSWGHHDCSHEEDAGVECSVHHHHHH : -0.288
